Molecular target: GST-Nv-NF-kB (Ser allele) (Nematostella vectensis, UniProt A7UNT2 2-411)
Sequence: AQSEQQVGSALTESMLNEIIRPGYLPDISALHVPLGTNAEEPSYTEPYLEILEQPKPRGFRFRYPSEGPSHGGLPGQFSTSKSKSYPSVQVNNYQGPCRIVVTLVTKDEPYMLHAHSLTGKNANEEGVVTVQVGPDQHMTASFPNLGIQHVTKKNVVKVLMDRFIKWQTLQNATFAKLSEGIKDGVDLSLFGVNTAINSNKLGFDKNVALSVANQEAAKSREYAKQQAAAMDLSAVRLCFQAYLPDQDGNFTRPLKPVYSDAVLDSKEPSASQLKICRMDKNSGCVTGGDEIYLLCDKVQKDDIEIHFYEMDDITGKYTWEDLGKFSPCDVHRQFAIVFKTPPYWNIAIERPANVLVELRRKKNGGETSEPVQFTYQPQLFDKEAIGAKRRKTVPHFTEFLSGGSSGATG
Assay: protein-binding microarray (PBM); PBM: ~300 nM protein, 6 mM HEPES pH 7.8, 80 mM KCl, 0.5 mM EDTA, 0.5 mM EGTA, 6% glycerol, 35 ng/ul poly-dIdC, 1% milk, 1 h, room temperature; high values mean tight binding
Conditions: dsDNA, one strand shown
Listing of recorded binding signal by entry.
Write the quantity with the unit trailing the number.

Query block: Reported binding signal for CCGATTAACATCAGGGGCTACCCTGATGTTAATCGGGTCTTGATTCGCTTGACGCTGCTG : what is it?
Result block: 2.1 z-score

Query block: Reported binding signal for CCGATTAACATCAGGGGATGGGATGATGTTAATCGGGTCTTGATTCGCTTGACGCTGCTG : what is it?
Result block: 4.39 z-score

Query block: Reported binding signal for CCGATTAACATCATGGGGGGGAATGATGTTAATCGGGTCTTGATTCGCTTGACGCTGCTG : what is it?
Result block: 4.89 z-score

Query block: Reported binding signal for CCGATTAACATCAGGGGGTTGCATGATGTTAATCGGGTCTTGATTCGCTTGACGCTGCTG : what is it?
Result block: 4.66 z-score

Query block: Reported binding signal for CCGATTAACATCAGGACTACCCCTGATGTTAATCGGGTCTTGATTCGCTTGACGCTGCTG : what is it?
Result block: 1.61 z-score

Query block: Reported binding signal for CCGATTAACATCAGAATTACCCATGATGTTAATCGGGTCTTGATTCGCTTGACGCTGCTG : what is it?
Result block: 3.26 z-score

Query block: Reported binding signal for CCGATTAACATCAGGGGCTGTACTGATGTTAATCGGGTCTTGATTCGCTTGACGCTGCTG : what is it?
Result block: 2.32 z-score

Query block: Reported binding signal for CCGATTAACATCAAAAACACCCCTGATGTTAATCGGGTCTTGATTCGCTTGACGCTGCTG : what is it?
Result block: 3.89 z-score

Query block: Reported binding signal for CCGATTAACATCACCCGTTTCCCTGATGTTAATCGGGTCTTGATTCGCTTGACGCTGCTG : what is it?
Result block: 4.29 z-score

Query block: Reported binding signal for CCGATTAACATCAGGGGGGAGAATGATGTTAATCGGGTCTTGATTCGCTTGACGCTGCTG : what is it?
Result block: 6.04 z-score

Query block: Reported binding signal for CCGATTAACATCAGGCAATTCCCTGATGTTAATCGGGTCTTGATTCGCTTGACGCTGCTG : what is it?
Result block: 3.97 z-score

---

Molecular target: GST-Hu-p50 (Homo sapiens, UniProt P19838 7-356)
Sequence (P19838 7-356): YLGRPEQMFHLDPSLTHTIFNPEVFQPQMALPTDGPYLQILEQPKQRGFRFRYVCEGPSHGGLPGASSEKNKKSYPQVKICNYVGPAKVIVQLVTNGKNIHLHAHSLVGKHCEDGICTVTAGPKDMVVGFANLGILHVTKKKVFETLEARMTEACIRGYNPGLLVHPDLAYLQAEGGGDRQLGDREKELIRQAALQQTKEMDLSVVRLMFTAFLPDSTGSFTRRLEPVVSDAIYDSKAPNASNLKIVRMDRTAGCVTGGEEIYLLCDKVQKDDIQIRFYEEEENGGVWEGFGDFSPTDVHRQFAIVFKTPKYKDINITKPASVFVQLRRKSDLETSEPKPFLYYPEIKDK
Assay: protein-binding microarray (PBM); PBM: ~300 nM protein, 6 mM HEPES pH 7.8, 80 mM KCl, 0.5 mM EDTA, 0.5 mM EGTA, 6% glycerol, 35 ng/ul poly-dIdC, 1% milk, 1 h, room temperature; high values mean tight binding
Settings: dsDNA, one strand shown
Consider the reported binding signal of an entry and match it to a band in bottom bin (below 3 z-score), middle bin (3 z-score to below 4 z-score), top bin (4 z-score or more)

CCGATTAACATCAGGCCACCCCCTGATGTTAATCGGGTCTTGATTCGCTTGACGCTGCTG    middle bin
CCGATTAACATCAACGTTTCCCCTGATGTTAATCGGGTCTTGATTCGCTTGACGCTGCTG    top bin
CCGATTAACATCAGGGCATACCCTGATGTTAATCGGGTCTTGATTCGCTTGACGCTGCTG    bottom bin
CCGATTAACATCAACACCCCCCCTGATGTTAATCGGGTCTTGATTCGCTTGACGCTGCTG    middle bin
CCGATTAACATCACGAGATTCCCTGATGTTAATCGGGTCTTGATTCGCTTGACGCTGCTG    bottom bin

Query block: Which binding signal category applies to CCGATTAACATCAAATCATCCCCTGATGTTAATCGGGTCTTGATTCGCTTGACGCTGCTG here?
Result block: top bin

Query block: Which binding signal category applies to CCGATTAACATCACGGAGTTCCCTGATGTTAATCGGGTCTTGATTCGCTTGACGCTGCTG here?
Result block: bottom bin

Query block: Which binding signal category applies to CCGATTAACATCAGGGAAAGAAATGATGTTAATCGGGTCTTGATTCGCTTGACGCTGCTG here?
Result block: bottom bin

---

Biological target: GST-Nv-NF-kB (Ser allele) (Nematostella vectensis, UniProt A7UNT2 2-411)
Sequence: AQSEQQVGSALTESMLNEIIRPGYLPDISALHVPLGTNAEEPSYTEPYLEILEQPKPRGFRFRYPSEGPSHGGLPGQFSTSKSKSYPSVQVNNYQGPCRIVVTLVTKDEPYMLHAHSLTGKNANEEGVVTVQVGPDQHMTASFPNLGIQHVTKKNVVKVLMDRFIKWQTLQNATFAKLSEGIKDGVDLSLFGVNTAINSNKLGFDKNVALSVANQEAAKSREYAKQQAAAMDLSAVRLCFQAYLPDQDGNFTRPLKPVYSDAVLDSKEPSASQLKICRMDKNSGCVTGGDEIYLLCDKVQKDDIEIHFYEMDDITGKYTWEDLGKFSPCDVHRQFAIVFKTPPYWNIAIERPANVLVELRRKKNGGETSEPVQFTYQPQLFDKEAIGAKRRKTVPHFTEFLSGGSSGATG
Assay: protein-binding microarray (PBM); PBM: ~300 nM protein, 6 mM HEPES pH 7.8, 80 mM KCl, 0.5 mM EDTA, 0.5 mM EGTA, 6% glycerol, 35 ng/ul poly-dIdC, 1% milk, 1 h, room temperature; high values mean tight binding
Details: dsDNA, one strand shown
Listing of recorded binding signal by entry.
Expressed in z-score, but write only the number.

CCGATTAACATCAAAAAATACCATGATGTTAATCGGGTCTTGATTCGCTTGACGCTGCTG    2.92
CCGATTAACATCAGGGAAACTTATGATGTTAATCGGGTCTTGATTCGCTTGACGCTGCTG    6.07
CCGATTAACATCAGGAAAAACCCTGATGTTAATCGGGTCTTGATTCGCTTGACGCTGCTG    3.96
CCGATTAACATCAGGGAAAGGGATGATGTTAATCGGGTCTTGATTCGCTTGACGCTGCTG    3.11
CCGATTAACATCAGGGGATATAATGATGTTAATCGGGTCTTGATTCGCTTGACGCTGCTG    6.48

We now examine a further sequence.
Query block: Reported binding signal for CCGATTAACATCAATCTACCCCCTGATGTTAATCGGGTCTTGATTCGCTTGACGCTGCTG : what is it?
Result block: 4.13

---

Target: GST-Hu-p50 (Homo sapiens, UniProt P19838 7-356)
Experiment: protein-binding microarray (PBM); PBM: ~300 nM protein, 6 mM HEPES pH 7.8, 80 mM KCl, 0.5 mM EDTA, 0.5 mM EGTA, 6% glycerol, 35 ng/ul poly-dIdC, 1% milk, 1 h, room temperature; Ap Aiptasia and Nv Nematostella (sea anemones) / Co Capsaspora / Aq Amphimedon (sponge) / Dm Drosophila / Hu human; RHD is the Rel homology domain; high values mean tight binding
Settings: dsDNA, one strand shown
Would you please tag the item YES when its binding signal is 3 z-score or above, and NO when it is below?

CCGATTAACATCAGGGATTCTCATGATGTTAATCGGGTCTTGATTCGCTTGACGCTGCTG    NO
CCGATTAACATCATCAGGGAAAATGATGTTAATCGGGTCTTGATTCGCTTGACGCTGCTG    NO
CCGATTAACATCACCCACCGATTTGATGTTAATCGGGTCTTGATTCGCTTGACGCTGCTG    NO
CCGATTAACATCAGGGAAAGAACTGATGTTAATCGGGTCTTGATTCGCTTGACGCTGCTG    NO
CCGATTAACATCACATCTTTCCCTGATGTTAATCGGGTCTTGATTCGCTTGACGCTGCTG    NO

Query block: Check if binding signal >= 3 z-score (inclusive). Item: CCGATTAACATCAATTTTTTCCCTGATGTTAATCGGGTCTTGATTCGCTTGACGCTGCTG
Result block: YES

Query block: Check if binding signal >= 3 z-score (inclusive). Item: CCGATTAACATCAGGGCCCCCCCTGATGTTAATCGGGTCTTGATTCGCTTGACGCTGCTG
Result block: YES

Query block: Check if binding signal >= 3 z-score (inclusive). Item: CCGATTAACATCACGGAAATTTCTGATGTTAATCGGGTCTTGATTCGCTTGACGCTGCTG
Result block: NO

Query block: Check if binding signal >= 3 z-score (inclusive). Item: CCGATTAACATCAGGGGGGACAATGATGTTAATCGGGTCTTGATTCGCTTGACGCTGCTG
Result block: YES
